Assay: Antiproliferative activity against chemosensitive human COLO205 cells incubated for 72 hrs by MTT assay
Format: functional, cell-based
Conditions: COLO 205, 72 h
Mark MET only when IC50 stays strictly below 20 µM. Values equal to the cut-off are NOT MET.

{"compound": "CCN(CC)C(=O)O[C@@H]1[C@@H]2[C@@H](OC(=O)N(CC)CC)[C@]3(CC[C@H]4[C@@H](/C=C(\\C)C(=O)[C@@]2(O)C[C@@H]1C)C4(C)C)CO3", "cat": "NOT MET"}
{"compound": "CO[C@H]1[C@@H]2[C@H](CC[C@]3(COC(=O)c4ccc(C(F)(F)F)cc4)O[C@@H]3[C@H]3[C@@H](OC(=O)c4ccc(C(F)(F)F)cc4)[C@@H](C)C[C@]3(O)C(=O)[C@@H]1C)C2(C)C", "cat": "MET"}
{"compound": "C/C1=C\\[C@@H]2[C@H](CC[C@@](C)(O)[C@H](O)[C@H]3[C@@H](OC(=O)c4ccccc4)[C@@H](C)C[C@]3(O)[C@H]1O)C2(C)C", "cat": "NOT MET"}
{"compound": "C/C1=C\\[C@@H]2[C@H](CC[C@@](C)(O)[C@H](O)[C@H]3[C@@H](OC(=O)c4ccccc4)[C@@H](C)C[C@]3(O)[C@H]1OC(=O)c1ccccc1)C2(C)C", "cat": "NOT MET"}
{"compound": "CO[C@H]1[C@@H]2[C@H](CC[C@]3(COC(=O)c4ccccc4)O[C@@H]3[C@H]3[C@@H](OC(=O)c4ccccc4)[C@@H](C)C[C@]3(O)C(=O)[C@@H]1C)C2(C)C", "cat": "MET"}

Input line: Given C/C1=C\[C@@H]2[C@H](CC[C@]3(CO3)[C@H](OC(=O)c3ccc(N(C)C)cc3)[C@H]3[C@@H](OC(=O)c4ccc(N(C)C)cc4)[C@@H](C)C[C@]3(O)C1=O)C2(C)C , is recorded IC50 strictly lower than 20 µM?
Output line: MET

* * *

Below, each entry is listed alongside its reported Ratio.
Molecular target: ATP-dependent translocase ABCB1 (Homo sapiens, UniProt P08183)
Sequence (P08183 whole entry): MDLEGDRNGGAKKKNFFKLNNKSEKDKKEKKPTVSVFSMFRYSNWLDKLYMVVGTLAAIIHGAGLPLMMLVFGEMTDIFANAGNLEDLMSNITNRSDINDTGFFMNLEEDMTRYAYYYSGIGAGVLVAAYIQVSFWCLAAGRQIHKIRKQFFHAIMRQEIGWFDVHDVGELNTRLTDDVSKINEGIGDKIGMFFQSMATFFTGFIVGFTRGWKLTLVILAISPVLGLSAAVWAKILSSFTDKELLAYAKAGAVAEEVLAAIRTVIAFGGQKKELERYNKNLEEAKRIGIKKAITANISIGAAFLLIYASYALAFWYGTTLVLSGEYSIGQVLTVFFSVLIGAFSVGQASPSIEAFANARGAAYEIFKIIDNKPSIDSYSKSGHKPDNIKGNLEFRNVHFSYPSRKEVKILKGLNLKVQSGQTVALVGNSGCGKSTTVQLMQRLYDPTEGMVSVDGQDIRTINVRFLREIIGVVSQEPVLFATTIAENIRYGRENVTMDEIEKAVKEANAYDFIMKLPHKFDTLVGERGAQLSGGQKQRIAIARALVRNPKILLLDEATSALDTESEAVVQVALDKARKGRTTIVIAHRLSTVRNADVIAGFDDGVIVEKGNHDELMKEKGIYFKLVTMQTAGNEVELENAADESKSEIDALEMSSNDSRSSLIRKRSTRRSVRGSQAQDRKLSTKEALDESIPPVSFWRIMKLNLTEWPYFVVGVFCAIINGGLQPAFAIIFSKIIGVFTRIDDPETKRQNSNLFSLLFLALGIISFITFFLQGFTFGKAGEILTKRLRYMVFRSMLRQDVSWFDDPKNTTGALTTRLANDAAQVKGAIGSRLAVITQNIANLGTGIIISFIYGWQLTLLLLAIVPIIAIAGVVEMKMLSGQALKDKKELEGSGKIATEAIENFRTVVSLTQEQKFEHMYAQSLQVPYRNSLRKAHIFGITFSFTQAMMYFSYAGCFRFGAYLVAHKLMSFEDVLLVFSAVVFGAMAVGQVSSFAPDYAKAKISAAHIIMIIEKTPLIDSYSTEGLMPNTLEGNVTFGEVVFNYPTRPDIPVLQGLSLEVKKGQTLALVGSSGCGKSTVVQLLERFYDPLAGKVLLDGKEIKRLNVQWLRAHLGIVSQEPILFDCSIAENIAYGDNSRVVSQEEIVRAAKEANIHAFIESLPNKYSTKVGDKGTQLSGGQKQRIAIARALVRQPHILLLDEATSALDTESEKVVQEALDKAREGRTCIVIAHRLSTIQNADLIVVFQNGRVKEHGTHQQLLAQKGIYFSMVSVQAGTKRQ
Assay: Inhibition of ABCB1 in multidrug resistant human COLO320 cells assessed as fluorescence activity ratio at 0.2 uM incubated for 10 mins by flow cytometry based rhodamine-123 accumulation assay (reference value: 0.62)
// return a plain number; no unit text

{"compound": "C/C1=C\\[C@@H]2[C@H](CC[C@]3(CO3)[C@H](OC(=O)c3ccc4ccccc4c3)[C@H]3[C@@H](OC(=O)c4ccc5ccccc5c4)[C@@H](C)C[C@]3(O)C1=O)C2(C)C", "readout.value": 2.54}
{"compound": "CO[C@H]1[C@@H]2[C@H](CC[C@]3(COC(=O)c4ccccc4)O[C@@H]3[C@H]3[C@@H](OC(=O)c4ccccc4)[C@@H](C)C[C@]3(O)C(=O)[C@@H]1C)C2(C)C", "readout.value": 6.34}
{"compound": "COc1ccccc1C(=O)OC[C@]1(C)CC[C@H]2[C@@H](/C=C(\\C)C(=O)[C@@]3(O)C[C@H](C)[C@H](OC(=O)c4ccccc4OC)[C@@H]3[C@H]1O)C2(C)C", "readout.value": 1.25}

Input line: Find the recorded Ratio belonging to CO[C@H]1[C@@H]2[C@H](CC[C@]3(COC(=O)c4ccc(C(F)(F)F)cc4)O[C@@H]3[C@H]3[C@@H](OC(=O)c4ccc(C(F)(F)F)cc4)[C@@H](C)C[C@]3(O)C(=O)[C@@H]1C)C2(C)C and report it.
Output line: 2.83

Input line: Which Ratio value belongs to COc1cccc(C(=O)O[C@@H]2[C@@H]3[C@@H](OC(=O)c4cccc(OC)c4)[C@]4(CC[C@H]5[C@@H](/C=C(\C)C(=O)[C@@]3(O)C[C@@H]2C)C5(C)C)CO4)c1 ?
Output line: 3.13
